Measured cytotoxicity at 10 µM accompanies every entry in the list below.
# MEASUREMENT_PROTOCOL: Toxicity liver stage against HepG2, at 10uM
# Assay type: cell-based
# Design: test concentration 10 uM, cell line HepG2-A16-CD81EGFP
# TEST_CONTEXT: human, HepG2-A16-CD81EGFP cells; read-out: INHIBITION
Report as a plain number; the unit % is understood.

Solved cases (3 shown):
| COMPOUND | cytotoxicity at 10 µM (%) |
| --- | --- |
| COCCNC(=O)[C@@H]1CCO[C@@H]2CCN(Cc3cnn(C)c3)C[C@@H]21 | 0.341 |
| CCn1ccnc1CN1CCN(c2ccc3nnc(C)n3n2)CC1 | 3.35 |
| CCCc1nc(C(=O)N(C)Cc2cc(CC)no2)cs1 | 6.75 |

Next up:
GET /values?readout=cytotoxicity at 10 µM&item= "COc1cc(CSc2nnc(N)n2C2CC2)ccc1SC" -6.09

* * *

# MEASUREMENT_PROTOCOL: Toxicity liver stage against HepG2, at 10uM
# Assay type: cell-based
# Design: test concentration 10 uM, cell line HepG2-A16-CD81EGFP
# TEST_CONTEXT: human, HepG2-A16-CD81EGFP cells; read-out: INHIBITION
READOUT_LABEL: cytotoxicity at 10 µM (%)
Report as a plain number; the unit % is understood.

| COMPOUND | cytotoxicity at 10 µM [%] |
| --- | --- |
| O=C(O)[C@@H]1CN(Cc2c[nH]c(CC3CCCC3)n2)C[C@H]1c1ccncc1 | 1.08 |
| CC(C)c1nc(CN(C)C(=O)CCNC(=O)c2ccccc2F)no1 | 4.66 |

GET /values?readout=cytotoxicity at 10 µM&item= CCN1CCC(CC(=O)NCC(O)c2ccc3ccccc3c2)CC1 (stereo unspecified) -5.26

Then what about the compound "Cc1noc(CCNC(=O)NCc2ccc(N3CCCCC3)cc2)n1" ? 9.47

Then what about the compound Cc1ccc2c(c1)C(NC(=O)C1CCN(S(C)(=O)=O)CC1)CC(C)(C)O2 (stereo unspecified) ? 2.22

Then what about the compound Cn1ccc(C(=O)N2CCC3(CCN3c3ncccn3)C2)n1 (stereo unspecified) ? 9.41

Then what about the compound "CN(C)c1cc(C(=O)N2CCCCCC2)ccn1" ? -8.83

* * *

Measured cytotoxicity at 10 µM accompanies every entry in the list below.
# MEASUREMENT_PROTOCOL: Toxicity liver stage against HepG2, at 10uM
# Assay type: cell-based
# Set-up: test concentration 10 uM, cell line HepG2-A16-CD81EGFP
# TEST_CONTEXT: human, HepG2-A16-CD81EGFP cells; read-out: INHIBITION
Report as a plain number; the unit % is understood.

GET /values?readout=cytotoxicity at 10 µM&item= "CNC(=O)NC(=O)CSc1ccc2c(c1)CCC2" 19.6

Then what about the compound "Cc1n[nH]cc1CNCc1cccc(OCC(F)(F)F)c1" ? 2.75

Then what about the compound COCCC(=O)NCCCOC1CCCc2ccccc21 (stereo not given) ? -6.87

Then what about the compound CN(C)S(=O)(=O)N1CCCC(c2ccncn2)C1 (stereo not given) ? -15.3

Then what about the compound c1ncn(CC2CCCCN2Cc2csc(C3CCCC3)n2)n1 (stereo not given) ? -6.44

Then what about the compound "Cc1csc(NC(=O)CN(C)CCOc2cccc(F)c2)n1" ? 0.115

Then what about the compound CC(CCc1cccc(F)c1)NC(=O)NCc1ncnn1C (stereo not given) ? 12.2

Then what about the compound CC(Cn1cccn1)NC(=O)Nc1ccc(N2CCCCC2)nc1 (stereo not given) ? -4.39

Then what about the compound "COCc1n[nH]c2c1CN(Cc1cccs1)C2" ? 3.3
